molecular target: HLA-A*69:01; experiment: IEDB peptide-MHC binding, purified MHC/direct/fluorescence; filed as Kd, often an IC50 or EC50 that approximates it; bounds were set here for any values at or beyond the usual limits of such assays; conditions: source organism: Pasteurella multocida
pKd: −log10 of the molar value.
Readout: pKd

Record `SQLEMCEKY` has HLA-A*69:01 pKd equal to ≤ 4.70

====

target: HLA-A*68:01; experiment: IEDB peptide-MHC binding, purified MHC/competitive/radioactivity; filed as Kd, often an IC50 or EC50 that approximates it; bounds were set here for any values at or beyond the usual limits of such assays; conditions: source organism: Mammarenavirus machupoense
Readout: Kd (µM)
All answers are understood in µM, so give the number only.

# example entries with known answers
- Record Sequence: "LNNSFYYMK"
  Tgt: "HLA-A*68:01"
  Kd / µM: 0.0677
- Record Sequence: "STSLSEEFFH"
  Tgt: "HLA-A*68:01"
  Kd / µM: 13.2
- Record Sequence: "SIQKNTIFK"
  Tgt: "HLA-A*68:01"
  Kd / µM: 0.162

We now examine a further sequence.
Sure, the documented Kd for `SSFDYCGMDH` is 3.4

====

biological target: HLA-C*15:02; assay: IEDB peptide-MHC binding, purified MHC/direct/fluorescence; filed as Kd, often an IC50 or EC50 that approximates it; bounds were set here for any values at or beyond the usual limits of such assays; details: source organism: Yersinia pestis Nepal516
Readout: Kd (nM)
All answers are understood in nM, so give the number only.

Sure, the documented Kd for `RAMKALSSI` is 17

====

molecular target: HLA-A*11:01; experiment: IEDB peptide-MHC binding, purified MHC/competitive/fluorescence; bounds were set here for any values at or beyond the usual limits of such assays; details: source organism: Homo sapiens
pIC50: −log10 of the molar value.
Readout: pIC50

Sure, the documented pIC50 for `YFYYNAFHWAI` is ≤ 4.70

====

target: HLA-A*03:01; assay: IEDB peptide-MHC binding, purified MHC/competitive/fluorescence; filed as Kd, often an IC50 or EC50 that approximates it; bounds were set here for any values at or beyond the usual limits of such assays; settings: source organism: Influenza A virus
Readout: pKd
Keep it numeric: pKd is minus log10 of the concentration in mol/L.

Record `LIAPRGYFK` has HLA-A*03:01 pKd equal to 7.97

====

target: HLA-A*31:01; test: IEDB peptide-MHC binding, purified MHC/competitive/radioactivity; filed as Kd, often an IC50 or EC50 that approximates it; bounds were set here for any values at or beyond the usual limits of such assays; conditions: source organism: Dengue virus 2 Peru/IQT2913/1996
Readout: pKd
Keep it numeric: pKd is minus log10 of the concentration in mol/L.

Sure, the documented pKd for `MLINRFTMR` is 8.37

====

target: HLA-A*24:02; test: IEDB peptide-MHC binding, purified MHC/competitive/fluorescence; filed as Kd, often an IC50 or EC50 that approximates it; bounds were set here for any values at or beyond the usual limits of such assays; conditions: source organism: Bacillus anthracis str. A0488
Readout: Kd

Record `IYPFHVQKI` has HLA-A*24:02 Kd equal to ≤ 0.1 nM

====

biological target: HLA-A*02:01; experiment: IEDB peptide-MHC binding, purified MHC/direct/fluorescence; filed as Kd, often an IC50 or EC50 that approximates it; bounds were set here for any values at or beyond the usual limits of such assays; conditions: source organism: Francisella tularensis subsp. holarctica LVS
Readout: Kd

Sure, the documented Kd for `EFKQILTDF` is ≥ 20 µM

All values here come from the Immune Epitope Database (IEDB).
